Readings of GI50 for the listed compounds
Test system: NCI-H23
protocol: NCI tumour cell line growth inhibition, 48 h
Active and inactive are the calls of the source. Rule as the data show it: active = GI50 up to about 1.1 µM and inactive = higher.

The cases that follow already have their GI50 on record.
[
  {
    "compound": "NNC(=S)N/N=C(\\CCCC(=O)NCCc1ccccc1)CC(=O)c1ccccc1",
    "GI50": "> 100 µM (inactive)"
  },
  {
    "compound": "COC(=O)c1ccccc1C1CN=NC12Cc1ccc3c(c1C2=O)CCC3 (stereo not given)",
    "GI50": "19.2 µM (inactive)"
  },
  {
    "compound": "O=C1CSC(c2ccc(Cl)cc2)N1c1ccc(Oc2ccc(Cl)cc2)c(Cl)c1 (stereo not given)",
    "GI50": "16.9 µM (inactive)"
  },
  {
    "compound": "Cc1cn(CCCCCCOC(=O)NC(CCCNC(=N)N)C(=O)O)c(=O)[nH]c1=O (stereo not given)",
    "GI50": "> 100 µM (inactive)"
  },
  {
    "compound": "N#Cc1c(Nc2ccccc2)[n+]([O-])c2ccc(Cl)cc2[n+]1[O-]",
    "GI50": "5.08 µM (inactive)"
  },
  {
    "compound": "CCCCOCc1cc(CN2CCN(C)CC2)c(O)c2ncccc12",
    "GI50": "14.5 µM (inactive)"
  },
  {
    "compound": "COc1ccc(C[C@H](N)C(=O)N2C[C@@H](CO)C[C@@H](n3ccc(=O)[nH]c3=O)C2)cc1",
    "GI50": "> 100 µM (inactive)"
  },
  {
    "compound": "CSc1nc(C)c2c(n1)SCC2",
    "GI50": "> 10 µM (inactive)"
  },
  {
    "compound": "O=C(CSc1ncnc2[nH]cnc12)c1ccccc1",
    "GI50": "> 100 µM (inactive)"
  }
]

Turning to the following compound.
[in] For the compound shown here, "CCc1ccccc1N1C(=O)C(=O)C(c2nc3ccccc3s2)C(=O)C1=O" , give the reported GI50.
[out] 66.2 µM (inactive)

====

Test system: CCRF-CEM
protocol: NCI tumour cell line growth inhibition, 48 h
Active and inactive are the calls of the source. Cut-off read from the data, not from the text of the source: active = GI50 up to about 1.1 µM and inactive = higher.
Answer with one of the outcomes active, inactive

[
  {
    "smilesStr": "Cc1cccc(-c2cc(O)c3cc(C)cnc3n2)c1",
    "answerLabel": "active"
  }
]

[in] Can you look up the reported call for "O=C(NC(OCc1ccccc1)(C(F)(F)F)C(F)(F)F)OCc1ccccc1" for me?
[out] inactive

[in] Now consider "OCCc1cnco1" .
[out] inactive

====

Below: a set of entries, each annotated with reported GI50.
Test system: NCI/ADR-RES
protocol: NCI tumour cell line growth inhibition, 48 h
Activity calls are given as the source filed them. Cut-off read from the data, not from the text of the source: active = GI50 up to about 1.1 µM and inactive = higher.

Worked examples follow.
[
  {
    "molecule": "CN1C(=O)c2ccccc2OC12C=Cc1c(ccc3ccccc13)O2 (stereo unspecified)",
    "GI50": "2.38 µM (inactive)"
  },
  {
    "molecule": "COC(=O)[C@@H]1[C@H](O)CCC2=C(CC(=O)c3ccoc3)[C@H](C)CC[C@]21C",
    "GI50": "22.2 µM (inactive)"
  },
  {
    "molecule": "NNC(=O)CSc1nc2ccc(I)cc2c(=O)n1Cc1ccccc1",
    "GI50": "40.6 µM (inactive)"
  },
  {
    "molecule": "Clc1cc2ccccc2c2ccccc12",
    "GI50": "> 100 µM (inactive)"
  }
]

[in] # query: GI50 of entry "CC(=O)c1sc2[n+](c1C)C(=O)/C(=C\c1ccccc1Cl)S2"
[out] 21 µM (inactive)

[in] Input "Cc1sc2nc3n(c(=O)c2c1C)N=CN(c1ccc(F)cc1)C3"
[out] > 100 µM (inactive)

Data origin: ChEMBL document CHEMBL1201862
